This collection of values is drawn from the supplement of paper PMC3334620.

# system: Zap1 (UniProt P47043)
# Sequence: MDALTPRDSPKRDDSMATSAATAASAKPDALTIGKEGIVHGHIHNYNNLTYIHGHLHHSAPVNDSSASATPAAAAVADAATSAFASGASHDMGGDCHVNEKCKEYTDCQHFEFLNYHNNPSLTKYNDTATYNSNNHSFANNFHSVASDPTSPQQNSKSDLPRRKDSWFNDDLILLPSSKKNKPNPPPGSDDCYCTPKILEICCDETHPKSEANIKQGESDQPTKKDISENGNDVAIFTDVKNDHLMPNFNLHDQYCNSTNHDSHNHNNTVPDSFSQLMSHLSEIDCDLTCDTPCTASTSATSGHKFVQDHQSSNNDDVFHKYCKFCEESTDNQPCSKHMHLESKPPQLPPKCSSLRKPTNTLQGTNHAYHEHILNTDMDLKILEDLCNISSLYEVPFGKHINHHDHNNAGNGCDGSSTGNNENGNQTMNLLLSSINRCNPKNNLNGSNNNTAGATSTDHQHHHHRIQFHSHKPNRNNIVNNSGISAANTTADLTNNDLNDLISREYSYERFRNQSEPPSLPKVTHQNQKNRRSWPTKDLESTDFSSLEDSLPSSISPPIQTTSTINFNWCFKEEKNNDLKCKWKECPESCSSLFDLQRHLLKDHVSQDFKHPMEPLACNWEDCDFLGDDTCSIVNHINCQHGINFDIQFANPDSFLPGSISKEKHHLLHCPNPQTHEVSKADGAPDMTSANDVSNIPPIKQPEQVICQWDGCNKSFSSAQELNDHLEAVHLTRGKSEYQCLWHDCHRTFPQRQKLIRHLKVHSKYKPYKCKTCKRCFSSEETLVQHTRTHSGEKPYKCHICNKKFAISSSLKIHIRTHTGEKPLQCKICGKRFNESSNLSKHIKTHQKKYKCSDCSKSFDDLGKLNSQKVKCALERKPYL
# measurement.protocol: PBM E-score (8-mer binding enrichment) (E-score (-0.5 to 0.5)); higher = stronger / more preferred TF binding
# recorded.conditions: protein concentration: 200 nM; construct: GST-full length
The full ranking holds about 33,000 sequences; the median of “E-score (-0.5 to 0.5)” is about -0.021, and the highest 2% start at about 0.32. The sample holds the highest values, similar sequences and a random draw of the others, so the mix is not that of the screen.
measured.endpoint: PBM E-score

{"columns": ["query.sequence", "reported.result"],
 "data": [
  ["ATGTTAAA", 0.0569],
  ["CAAGTGTC", -0.0245],
  ["GATCGTAC", -0.069],
  ["AGGTTAAA", 0.376],
  ["CCCACTTA", -0.0455],
  ["CACCTTAC", 0.148],
  ["CACCTTAG", 0.245],
  ["ACTTCTCT", -0.0321],
  ["GTCCTTAA", 0.268],
  ["CTGTTAAA", 0.0123]
]}

Q: Recorded PBM E-score for "AACCTTAT" , please?
Ans: 0.312

Q: Recorded PBM E-score for "AGCGTTAG" , please?
Ans: -0.147

Q: Recorded PBM E-score for "AGGGTTAA" , please?
Ans: 0.461

Q: Recorded PBM E-score for "TGGTTAAA" , please?
Ans: 0.379

Q: Recorded PBM E-score for "TGCCTTAA" , please?
Ans: -0.0666

Q: Recorded PBM E-score for "CGGTTAAA" , please?
Ans: 0.328

Q: Recorded PBM E-score for "GAGCTTAA" , please?
Ans: -0.0983

Q: Recorded PBM E-score for "CGGTTTAA" , please?
Ans: 0.0515
